Cited source for all entries: patent US20120064062A1

target: UniProtKB P17811
parameter: pIC50
Keep in mind that pIC50 stands for -log10 of concentration in molar terms.

Inquiry: Form field: reported pIC50 of `O=S(=O)(Nc1cc(Cl)ccc1Oc1ccccc1)c1cccs1`
Reply text: 6.00

Inquiry: Also `COC(=O)c1c(C)oc2ccc(N(C(=O)c3ccncc3)S(=O)(=O)c3ccc(F)cc3C)cc12` ?
Reply text: 5.18

Inquiry: Again, but for `Cc1ccc(S(=O)(=O)Nc2ccccc2C(=O)c2ccccc2)cc1`
Reply text: 4.00

###

assay: Cytotoxicity to HeLa cells in serum-free culture (MTS); settings: human
parameter: CC50 (µM)
Give just the numeric value; µM need not be written.

Please review the entries below; each comes with its answer.
| compound | value |
| --- | --- |
| O=[N+]([O-])c1ccccc1S(=O)(=O)Nc1cc(Cl)ccc1Oc1ccccc1 [Compound 4] | 47 |
| O=S(=O)(Nc1cc(Cl)ccc1Oc1ccccc1)c1cccs1 [Compound 3] | 49 |

Inquiry: Look up CC50: O=S(=O)(Nc1ccccc1-c1ccccc1)c1cccs1 [Compound 2]
Reply text: 62

###

molecular target: Y. pestis Pla (Yersinia pestis, UniProt P17811)
Sequence (P17811 21-312 limits assumed): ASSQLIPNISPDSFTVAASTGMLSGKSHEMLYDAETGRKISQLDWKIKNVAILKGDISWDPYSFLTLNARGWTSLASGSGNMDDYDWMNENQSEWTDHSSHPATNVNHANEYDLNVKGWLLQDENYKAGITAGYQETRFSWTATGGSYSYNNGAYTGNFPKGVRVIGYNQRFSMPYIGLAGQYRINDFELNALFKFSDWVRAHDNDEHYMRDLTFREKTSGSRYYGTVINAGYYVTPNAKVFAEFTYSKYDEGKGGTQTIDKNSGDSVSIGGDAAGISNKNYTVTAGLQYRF
Rule: IC50 below 40 µM gives Satisfied. Equal to or above 40 µM gives Not satisfied.

These solved cases illustrate the format of a correct answer.
| compound | answer.label |
| --- | --- |
| O=S(=O)(Nc1ccccc1Oc1ccccc1)c1cc(Cl)ccc1Cl [I] | Not satisfied |
| O=S(=O)(Nc1cc(Cl)ccc1Oc1ccccc1)c1ccc2c(c1)OCCO2 [Compound 1] | Satisfied |
| O=S(=O)(Nc1ccccc1-c1ccccc1)c1ccc(Br)s1 [B] | Satisfied |

Inquiry: IC50 under 40 µM? Item: O=S(=O)(Nc1ccccc1C1=NCCc2ccccc21)c1ccc(Cl)cc1 [D]
Reply text: Satisfied

Inquiry: Field entry: COc1ccc(C)cc1S(=O)(=O)Nc1cc(Cl)ccc1Oc1ccccc1 [G]
Reply text: Not satisfied

###

target: tissue plasminogen activator (tPA) (Homo sapiens); construct: purchased US Biological, Inc. T5600-30; assay: tPA plasminogen activator counter-screen (Glu-Plg, S2251); type: biochemical; conditions: z-score = number of standard deviations below DMSO control
Sequence (P00750 36-562): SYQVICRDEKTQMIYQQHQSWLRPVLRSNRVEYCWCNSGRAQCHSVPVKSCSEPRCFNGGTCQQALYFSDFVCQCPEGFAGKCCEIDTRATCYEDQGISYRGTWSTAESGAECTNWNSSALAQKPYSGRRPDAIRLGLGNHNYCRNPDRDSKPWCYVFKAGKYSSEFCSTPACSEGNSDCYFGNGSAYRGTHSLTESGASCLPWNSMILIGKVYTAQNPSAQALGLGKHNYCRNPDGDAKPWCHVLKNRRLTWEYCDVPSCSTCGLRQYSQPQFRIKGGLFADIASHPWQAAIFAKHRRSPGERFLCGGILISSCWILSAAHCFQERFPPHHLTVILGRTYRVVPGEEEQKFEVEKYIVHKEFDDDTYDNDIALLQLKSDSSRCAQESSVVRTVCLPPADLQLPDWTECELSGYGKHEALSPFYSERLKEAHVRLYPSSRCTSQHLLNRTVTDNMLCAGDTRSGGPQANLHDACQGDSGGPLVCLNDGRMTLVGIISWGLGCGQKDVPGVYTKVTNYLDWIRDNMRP
parameter: tPA Z-Score at 50 μM
Form: value (number only, do not type unit).

Here is how some molecules turned out for tPA Z-Score at 50 μM.
| molecule | tPA Z-Score at 50 μM |
| --- | --- |
| O=[N+]([O-])c1ccccc1S(=O)(=O)Nc1cc(Cl)ccc1Oc1ccccc1 [Compound 4] | 0.4 |
| O=S(=O)(Nc1cc(Cl)ccc1Oc1ccccc1)c1cccs1 [Compound 3] | 0.3 |
| O=S(=O)(Nc1cc(Cl)ccc1Oc1ccccc1)c1ccc2c(c1)OCCO2 [Compound 1] | −0.3 |

Inquiry: Which measured tPA Z-Score at 50 μM value corresponds to O=S(=O)(Nc1ccccc1-c1ccccc1)c1cccs1 [Compound 2] ?
Reply text: 0.5

###

target: cathepsin D (Homo sapiens, UniProt P07339); construct: purchased R&D Systems 1014-AS-010; assay: Cathepsin D fluorometric counter-screen; format: biochemical; conditions: z-score = number of standard deviations below DMSO control
Sequence (P07339 65-412): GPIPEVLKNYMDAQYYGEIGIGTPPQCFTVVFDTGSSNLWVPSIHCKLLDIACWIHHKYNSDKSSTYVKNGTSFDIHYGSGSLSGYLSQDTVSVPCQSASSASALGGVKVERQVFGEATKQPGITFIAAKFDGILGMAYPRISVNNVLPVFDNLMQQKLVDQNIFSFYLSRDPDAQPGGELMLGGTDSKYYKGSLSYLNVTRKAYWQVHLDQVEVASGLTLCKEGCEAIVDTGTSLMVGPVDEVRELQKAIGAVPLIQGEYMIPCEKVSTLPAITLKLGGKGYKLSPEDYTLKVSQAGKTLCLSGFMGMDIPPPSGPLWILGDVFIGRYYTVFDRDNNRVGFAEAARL
parameter: Cathepsin-D Z-Score at 50 μM
Output: the number by itself.

These recorded examples may help you get a feel for the data.
| query.smiles | Cathepsin-D Z-Score at 50 μM |
| --- | --- |
| O=S(=O)(Nc1cc(Cl)ccc1Oc1ccccc1)c1ccc2c(c1)OCCO2 | −0.2 |
| O=S(=O)(Nc1cc(Cl)ccc1Oc1ccccc1)c1cccs1 | 0 |
| O=S(=O)(Nc1ccccc1-c1ccccc1)c1cccs1 | −1.6 |

Let's switch to this molecule now.
Inquiry: Lab note: need Cathepsin-D Z-Score at 50 μM for `O=[N+]([O-])c1ccccc1S(=O)(=O)Nc1cc(Cl)ccc1Oc1ccccc1` on cathepsin D (Homo sapiens, UniProt P07339), anyone have it?
Reply text: 0.6

###

target: urokinase type plasminogen activator (uPA) (Homo sapiens, UniProt P00749); construct: purchased US Biological, Inc. U2605-01; test: uPA plasminogen activator counter-screen (Glu-Plg, S2251); format: biochemical; conditions: z-score = number of standard deviations below DMSO control
parameter: uPA Z-Score at 50 μM
Would you mind answering with just the numeric figure?

# example entries with known answers
| compound | assay.system | parameter | value |
| --- | --- | --- | --- |
| O=S(=O)(Nc1cc(Cl)ccc1Oc1ccccc1)c1cccs1 [Compound 3] | urokinase type plasminogen activator (uPA) (Homo sapiens, UniProt P00749) | uPA Z-Score at 50 μM | 0.5 |
| O=S(=O)(Nc1cc(Cl)ccc1Oc1ccccc1)c1ccc2c(c1)OCCO2 [Compound 1] | urokinase type plasminogen activator (uPA) (Homo sapiens, UniProt P00749) | uPA Z-Score at 50 μM | 0.5 |
| O=S(=O)(Nc1ccccc1-c1ccccc1)c1cccs1 [Compound 2] | urokinase type plasminogen activator (uPA) (Homo sapiens, UniProt P00749) | uPA Z-Score at 50 μM | 0.5 |

Inquiry: GET /values?readout=uPA Z-Score at 50 μM&system=urokinase type plasminogen activator (uPA) (Homo sapiens, UniProt P00749)&item= O=[N+]([O-])c1ccccc1S(=O)(=O)Nc1cc(Cl)ccc1Oc1ccccc1 [Compound 4]
Reply text: 1
